molecular target: hOX1R (Homo sapiens); construct: expressed in transfected cells; experiment: In vitro test of OX1R: calcium signal change in cells detected with FLIPR; format: cell-based; conditions: HEK293-OX1 stable cell strain, Fluo-4 AM calcium signal, Orexin A at EC70; read-out: IC50 detected in FLIPR, hOX1R
Sequence (O43613 whole entry): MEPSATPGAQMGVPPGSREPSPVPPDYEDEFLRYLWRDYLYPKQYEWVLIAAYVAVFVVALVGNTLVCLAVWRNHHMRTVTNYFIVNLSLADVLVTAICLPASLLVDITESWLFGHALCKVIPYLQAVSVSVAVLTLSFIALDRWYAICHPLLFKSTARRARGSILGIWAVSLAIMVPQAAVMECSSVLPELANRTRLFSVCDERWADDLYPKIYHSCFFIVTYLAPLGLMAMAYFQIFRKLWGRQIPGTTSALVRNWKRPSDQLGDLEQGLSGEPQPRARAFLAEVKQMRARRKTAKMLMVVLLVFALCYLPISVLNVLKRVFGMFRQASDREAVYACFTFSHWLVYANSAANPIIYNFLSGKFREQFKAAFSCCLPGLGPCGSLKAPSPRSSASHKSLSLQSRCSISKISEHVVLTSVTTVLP
TEST_READOUT: IC50 (nM)
Reply with just the number (in nM).

If you can, please state the reported IC50 value of "Cc1ccc(C)c(C(=O)N2C3CC[C@H]2CC[C@@H]3OCc2ccc(F)cn2)c1" .
217

Then "O=C(c1cc(Cl)ccc1-n1ccnn1)N1C2CC[C@H]1CC[C@@H]2COc1ccc(F)cn1" ?
41

Then Cc1ccc(-n2nccn2)c(C(=O)N2C3CCC(COc4ccc(F)cn4)C2CC3)c1 (single isomer, unassigned) [Example 4] ?
217

Then Cc1ccc(-c2ncccn2)c(C(=O)N2C3CCC2C(F)(COc2ccc(F)cn2)CC3)c1 (stereo not shown) ?
48

Then "Cc1ccc(-c2ncccn2)c(C(=O)N2C3CC[C@H](COc4ccc(F)cn4)[C@@H]2CC3)c1" ?
2550

Then "O=C(c1cc(F)ccc1-c1ncccn1)N1C2CC[C@H]1CC[C@@H]2COc1ccc(F)cn1" ?
43

Then "Cc1ccc(-c2ncccn2)c(C(=O)N2C3CC[C@H]2CC[C@@H]3COc2ccc(F)cc2)c1" ?
68

###

target: hOX2R (Homo sapiens, UniProt O43614); construct: expressed in transfected cells; assay: In vitro test of OX2R: calcium signal change in cells detected with FLIPR; type: cell-based; settings: IC50 detected in FLIPR, hOX2R, HEK293-OX2 stable cell strain, Fluo-4 AM calcium signal, Orexin A at EC70
Sequence (O43614 whole entry): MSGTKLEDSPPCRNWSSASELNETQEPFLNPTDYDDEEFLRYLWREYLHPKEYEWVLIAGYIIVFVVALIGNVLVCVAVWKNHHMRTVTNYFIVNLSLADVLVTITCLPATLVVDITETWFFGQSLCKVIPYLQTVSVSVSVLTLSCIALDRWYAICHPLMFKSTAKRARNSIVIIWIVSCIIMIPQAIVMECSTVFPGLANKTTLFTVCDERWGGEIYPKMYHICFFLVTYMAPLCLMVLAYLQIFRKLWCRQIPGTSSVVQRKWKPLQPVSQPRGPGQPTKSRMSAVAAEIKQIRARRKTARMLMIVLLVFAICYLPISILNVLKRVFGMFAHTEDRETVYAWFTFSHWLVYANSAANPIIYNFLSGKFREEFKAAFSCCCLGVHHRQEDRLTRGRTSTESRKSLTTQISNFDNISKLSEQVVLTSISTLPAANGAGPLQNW
Answer each item with its documented log10 IC50.
// units: nM (pre-log); metric: IC50; scale: log10

If you can, please state the reported log10 IC50 value of "Cc1nc(C(=O)N2C3CC[C@H]2CC[C@@H]3COc2ccc(F)cn2)c(-c2ccccc2)s1" .
1.86

Then "Cc1ccc(-c2nccs2)c(C(=O)N2C3CC[C@H]2CC[C@@H]3OCc2ccc(F)cn2)c1" ?
1.56

Then Cc1ccc(-c2ncccn2)c(C(=O)N2C3CCC(c4nc5ccccc5o4)C2CC3)c1 (centres unmarked) ?
1.36

Then "O=C(c1c(F)cccc1-n1nccn1)N1C2CC[C@H]1CC[C@@H]2COc1ccc(F)cn1" ?
1.18

Then Cc1ccc(-c2ncccn2)c(C(=O)N2C3CCC(C(=O)Nc4ccccc4O)C2CC3)c1 (centres unmarked) ?
3.48

Then "Cc1ccc(-n2cccn2)c(C(=O)N2C3CC[C@H]2CC[C@@H]3COc2ccc(F)cn2)c1" ?
1.41

Then "O=C(c1cc(Cl)ccc1-n1nccn1)N1C2CC[C@H]1CC[C@@H]2COc1ccc(F)cn1" ?
2.64

Then "Cc1ccc(-c2ncccn2)c(C(=O)N2C3CC[C@H]2CC[C@@H]3COc2cccnc2)c1" ?
2.34

Then "Cc1ccc(-c2ncccn2)c(C(=O)N2C3CC[C@H]2CC[C@@H]3COc2ccc(F)cc2F)c1" ?
2.42

Then Cc1ccc(-c2ncccn2)c(C(=O)N2C3CCC2[C@@H](COc2ccccn2)CC3)c1 (some centres unmarked) ?
1.99

Then "O=C(c1ccc(F)cc1-n1nccn1)N1C2CC[C@H]1CC[C@@H]2COc1ccc(F)cn1" ?
1.74

Then "O=C(c1cc(Cl)ccc1-c1ncccn1)N1C2CC[C@H]1CC[C@@H]2COc1ccc(F)cn1" ?
2.96

Then "Cc1cccc(S(=O)(=O)N2C3CC[C@H]2CC[C@@H]3COc2ccc(F)cn2)c1" ?
3.14

Then Cc1ccc(-c2cccnc2)c(C(=O)N2C3CCC2[C@@H](COc2ccc(F)cn2)CC3)c1 (some centres unmarked) ?
1.38

Then "O=C(c1cc(C(F)(F)F)ccc1-c1ncccn1)N1C2CC[C@H]1CC[C@@H]2COc1ccc(F)cn1" ?
3.15

Then Cc1ccc(OCC2CCC3CCC2N3C(=O)c2cc(C)ccc2-c2ncccn2)nc1 (centres unmarked) ?
1.94

Then "Cc1ccc(-c2ccccc2)c(C(=O)N2C3CC[C@H]2CC[C@@H]3COc2ccc(F)cn2)c1" ?
2.31

Then "O=C(c1cc(F)ccc1-n1nccn1)N1C2CC[C@H]1CC[C@@H]2COc1ccc(F)cn1" ?
1.30

Then Cc1ccc(-c2cncnc2)c(C(=O)N2C3CCC2[C@@H](COc2ccc(F)cn2)CC3)c1 (some centres unmarked) ?
3.40

Then "Cc1ccc(-c2ccncc2)c(C(=O)N2C3CC[C@H]2CC[C@@H]3COc2ccc(F)cn2)c1" ?
2.82

Provenance of the data: patent US10100047B2
